# procedure-text: Pharmacokinetic studies in human, Compound I in plasma by LC/MS/MS
# Type: in vivo
# stated-conditions: human, plasma, intravenous, Groups 1-7, Day 1, range of group means; read-out: Total exposures (AUC∞)
measured-endpoint: AUC(0-inf)

// query Recorded AUC(0-inf) of Cc1cnc(CNC(=O)c2c(=O)c3ccc(N4CCCN(C)CC4)nc3n3c2sc2ccccc23)cn1 [Compound I] , please.
// result 6650 to 36200 ng·h/mL

* * *

# procedure-text: Pharmacokinetic studies in human, Compound I in plasma by LC/MS/MS
# Type: in vivo
# stated-conditions: human, plasma, iv, 200 mg/m2, Group 4, 200 mg/m^2 IV, Day 8, mean, n = 4
measured-endpoint: clearance (mL/min)
Reply with just the number (in mL/min).

// query Recorded clearance of Cc1cnc(CNC(=O)c2c(=O)c3ccc(N4CCCN(C)CC4)nc3n3c2sc2ccccc23)cn1 , please.
// result 470
